Hello, the source for this data is patent US20190315854A1, in case you need it.

// reported koff for each item listed
# target-entity: T1, sIL-6R (soluble IL-6 receptor; SBH Sciences) (human, UniProt P08887 20-365)
# T1 construct: also called human IL-6R
# T1 sequence: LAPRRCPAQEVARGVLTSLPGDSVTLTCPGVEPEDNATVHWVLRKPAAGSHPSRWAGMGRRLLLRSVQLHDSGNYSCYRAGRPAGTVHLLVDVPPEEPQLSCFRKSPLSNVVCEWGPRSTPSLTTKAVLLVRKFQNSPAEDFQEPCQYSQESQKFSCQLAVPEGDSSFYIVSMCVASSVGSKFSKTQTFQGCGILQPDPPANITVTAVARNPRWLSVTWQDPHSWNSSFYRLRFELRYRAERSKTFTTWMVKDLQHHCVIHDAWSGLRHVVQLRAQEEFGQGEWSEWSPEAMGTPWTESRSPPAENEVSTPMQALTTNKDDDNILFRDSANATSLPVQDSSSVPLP
# test-protocol: SPR (BIAcore 3000), antibody on chip, sIL-6R analyte, 25 C
Provide only the numeric value, understood in s⁻¹.

>>> obs_value("237# (antibody, human IgG1, kappa, V domains shown, also called Sample # 237) VH: QVQLQESGPGLVRPSQTLSLTCTVSGYSITSDHAWSWVRQPPGRGLEWIGYISYSGMTTYNPSLKSRVTMLRDTSKNQFSLRLSSVTAADTAVYYCARCLARTTAMDYWGQGSLVTVSS VL: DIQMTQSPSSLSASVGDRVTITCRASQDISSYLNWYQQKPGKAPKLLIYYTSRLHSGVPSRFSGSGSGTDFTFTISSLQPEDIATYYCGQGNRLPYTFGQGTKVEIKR")
"1.01e-05"

Entry 222# (antibody, human IgG1, kappa, V domains shown, also called Sample # 222) VH: QVQLQESGPGLVRPSQTLSLTCTVSGYSITSDHAWSWVRQPPGRGLEWIGYISYSGMITYNPSLKSRVTMLRDTSKNQFSLRLSSVTAADTAVYYCARCLARMTAMDYWGQGSLVTVSS VL: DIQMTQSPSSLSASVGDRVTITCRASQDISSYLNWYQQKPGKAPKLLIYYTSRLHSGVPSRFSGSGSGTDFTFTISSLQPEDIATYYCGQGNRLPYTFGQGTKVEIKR ; koff = 3.66e-05
